# experimental_target: angiotensin II receptor
# procedure_details: Displacement of 125I- or 3H-angiotensin II from receptor preparations from various organs (liver, lung, adrenal gland, brain etc.)
# details: Table 1; radioligand displacement, 25° C., 90 min, pH 7.4
pIC50: −log10 of the molar value.
endpoint: pIC50

Record excerpt, results attached:
C#CCNC(=O)NS(=O)(=O)c1ccccc1-c1ccc(Cn2c(CCCC)nc(SC)c2C(=O)O)cc1 ... 9.30
CCCCc1nc(SC)c(C(=O)O)n1Cc1ccc(-c2ccccc2S(=O)(=O)NS(=O)(=O)N(C)C)cc1 ... 8.59

[a] CCCCc1nc(SC)c(C(=O)O)n1Cc1ccc(-c2ccccc2S(=O)(=O)NC(=O)NCc2ccncc2)cc1
[b] CCCCc1nc(SC)c(C(=O)OCC)n1Cc1ccc(-c2ccccc2S(=O)(=O)NC(=O)NCC2CC2)cc1
Could you check which of a and b has a smaller value for pIC50? Respond using the label that marks the chosen record.
a
(a: 9.05, b: 9.30)
